Assign pKd to each entry below.
- Target Under Test: Recombinant human his-tagged IGF 1R extracellular domain protein (human) (UniProt P08069)
- Assay Procedure: SPR, captured IgG, IGF-1R ECD-his analyte, dissociation pH 7.4
# pKd: negative log10 of molar concentration; output just the value

Data request: # input binder: VRDN-02559 (antibody, V domains shown) VH: EVQLVQSGGGLVKPGGSLRLSCAASGFTFSSFHMHWVRQAPGKGLEWISVIDTRGATYYADSVKGRFTISRDNAKNSLYLQMNSLRAEDTAVYYCHRLGNFYYGMDVWGQGTTVTVSS VL: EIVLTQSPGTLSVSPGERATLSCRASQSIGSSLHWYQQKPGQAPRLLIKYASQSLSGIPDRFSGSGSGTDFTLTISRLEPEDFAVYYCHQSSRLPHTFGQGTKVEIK ; wanted: its pKd
Data returned: 9.23

Data request: # input binder: VRDN-02542 (antibody, V domains shown) VH: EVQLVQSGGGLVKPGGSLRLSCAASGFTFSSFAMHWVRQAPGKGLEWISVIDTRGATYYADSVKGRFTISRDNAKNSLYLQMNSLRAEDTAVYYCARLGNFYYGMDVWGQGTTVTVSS VL: EIVLTQSPGTLSVSPGERATLSCRASQSIGSSLHWYQQKPGQAPRLLIKYASHSLSGIPDRFSGSGSGTDFTLTISRLEPEDFAVYYCHQSSRLPHTFGQGTKVEIK ; wanted: its pKd
Data returned: 11.27

Data request: # input binder: VRDN-02546 (antibody, V domains shown) VH: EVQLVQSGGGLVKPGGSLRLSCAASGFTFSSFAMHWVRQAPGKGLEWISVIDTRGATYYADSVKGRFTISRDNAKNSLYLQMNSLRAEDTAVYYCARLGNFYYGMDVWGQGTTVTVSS VL: EIVLTQSPGTLSVSPGERATLSCRASQSIGSSLHWYQQKPGQAPRLLIKYASQSLSGIPDRFSGSGSGTDFTLTISRLEPEDFAVYYCHHSSRLPHTFGQGTKVEIK ; wanted: its pKd
Data returned: 9.31

Every entry's value here was drawn from patent US20240343814A1.
